# Test system: tubulin polymerization
# PROTOCOL: Tubulin polymerization assay (ITP)
# Assay type: biochemical
READOUT_TYPE: activity in the tubulin polymerization assay (in words)

COMPOUND: O=C(O)Cc1cccc2[nH]c(-c3ccccc3F)cc(=O)c12 [Compound 2]
ENDPOINT_VALUE: totally inactive
--
COMPOUND: O=C(O)Cc1cccc2c1N=C(c1ccccc1)CC2=O [Compound 11, 2-Phenyl-4-quinolone-8-acetic acid]
ENDPOINT_VALUE: totally inactive
--
COMPOUND: O=C(O)Cc1ccc2c(=O)cc(-c3ccccc3F)[nH]c2c1 [Compound 4]
ENDPOINT_VALUE: totally inactive
